# target-system: T1, human CD20 (human, UniProt P11836 1-297)
# T1 construct: On human CD20-transfected MG87 cells, or endogenous on Daudi, RL and Raji cells; also called hCD20
# T1 sequence: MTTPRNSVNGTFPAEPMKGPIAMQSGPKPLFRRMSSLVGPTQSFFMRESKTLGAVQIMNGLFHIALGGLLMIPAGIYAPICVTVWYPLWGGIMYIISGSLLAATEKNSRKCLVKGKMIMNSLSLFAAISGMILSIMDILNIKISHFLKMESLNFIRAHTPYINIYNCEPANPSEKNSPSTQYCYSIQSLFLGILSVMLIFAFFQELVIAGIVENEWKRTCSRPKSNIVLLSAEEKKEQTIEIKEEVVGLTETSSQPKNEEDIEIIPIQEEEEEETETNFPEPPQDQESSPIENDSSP
# experimental-details: flow cytometry, hCD20-transfected MG87 cells
value-type: Total Mean Fluorescent Intensity
Returns: the value as a bare number; no unit string appended.

Exam item: May I ask what Total Mean Fluorescent Intensity has been recorded for 10E3-17 (antibody, V domains shown, Fully human IgG, constant region not specified; also called 10E3-17N) VH: EVQLVESGGGLVQPGRSLRLSCAASGFTFRDYAMHWVRQVPGKGLEWVSGISWNRGTIGYADSVKGRFTISRDNAKNSLFLQMNSLRADDTALYYCAKDHYYGSGSPYGMDVWGQGTTVTVSS VL: EIVLTQSPATLALSPGERATLSCRASQSVSKYLAWYQQKPGQAPRLLIYDASKRVTGIPGRLSGSGSGTDFTLTISSLEPEDFALYYCQQSSNWPITFGQGTRVEIK ?
Marked response: 3070

Next:
Exam item: Using the record for 10F2-13 (antibody, V domains shown, Fully human IgG, constant region not specified; also called 10F2-13N; ab 10F2-13) VH: EEQLVESGGDLVQPGRSLRLSCAASGFTFHDYTMHWVRQAPGKGLEWVSGISWNSGSLGYADSVKGRFTISRDNAKKSLYLQMNSLRAEDTALYYCAKDPSYGSGSYHSYYGMDVWGQGTTVTVSS VL: EIVLTQSPATLSLSPGERATLSCWASQSISRYLVWYQQKCGQAPRLLIYEASKRATGIPVRFSGSGSGTDFTLTISSLESEDFAVYYCQQRFNWPLTFGGGTKVEIK , report its Total Mean Fluorescent Intensity.
Marked response: 3400
